# System Under Test: KRas-G12D (Homo sapiens, UniProt P01116, G12D)
# Construct: insert the HiBiT tag onto the N-terminus of one or more of the endogenous KRas alleles; host or cells: AsPC-1 HiBiT-KRasG12D knock-in clone (one tagged allele, two untagged KRasG12D alleles)
# Sequence (P01116 1-188 isoform P01116-2 G12D): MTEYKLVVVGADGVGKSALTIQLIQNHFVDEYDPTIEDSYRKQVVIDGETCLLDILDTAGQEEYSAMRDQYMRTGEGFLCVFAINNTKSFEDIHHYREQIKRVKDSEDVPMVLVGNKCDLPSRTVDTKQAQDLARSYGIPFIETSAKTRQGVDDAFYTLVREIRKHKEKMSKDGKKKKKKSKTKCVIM
# Assay Notes: HiBiT Degradation Assay (G12D), AsPC-1 HiBiT-KRasG12D cells, 24 hr
# Format: cell-based
# Experimental Parameters: ASPC1, AsPC-1 cells, maximum degradation observed
Examples of compounds with documented Dmax follow.

Compound	System Under Test	Dmax
CCc1c(F)ccc2cc(O)cc(-c3ncc4c(N5CC6CCC(C5)N6)nc(OCCN5CCC(F)(CN6CCN(CC7CCN(c8ccc9c(c8)n(C)c(=O)n9C8CCC(=O)NC8=O)CC7)CC6)CC5)nc4c3F)c12 (stereo not drawn)	KRas-G12D (Homo sapiens, UniProt P01116, G12D)	> 70%
CCc1cccc2cc(O)cc(-c3ncc4c(N5CC6CCC(C5)N6)nc(OCCN5CCC(CC6CCN(c7cccc8c7C(=O)N(C7CCC(=O)NC7=O)C8=O)CC6)CC5)nc4c3F)c12 (stereo not drawn)	KRas-G12D (Homo sapiens, UniProt P01116, G12D)	≤ 25%
C#Cc1c(F)ccc2cc(O)cc(-c3ncc4c(N5CC6CCC(C5)N6)nc(OCCN5CCC(F)(CN6CCC(CC7CCN(c8ccc9c(c8)n(C)c(=O)n9C8CCC(=O)NC8=O)CC7)CC6)CC5)nc4c3F)c12 (stereo not drawn)	KRas-G12D (Homo sapiens, UniProt P01116, G12D)	> 70%

FYI, the data here is from patent US12448399B2.
